# test-details: In vitro cytotoxicity / potentiation of Actinomycin D in Chinese hamster ovary cells, drug resistant C5S32 (MTT)
# Format: cell-based
# test-conditions: hamster, cho c5s32 cells, 1 μM potentiating agent alone, fraction of untreated cultures (1.00), read-out: Cytotoxicity, normalized absorbance, Drug Resistant C5S32, 0 (no Act D)
Counter-ions that a name gives are not always drawn.
# Criterion met = viability at 96 h, 1 µM below 90% (exclusive); Criterion not met = viability at 96 h, 1 µM at/above 90%

compound | group-label
CN(C)CC/C=C1\c2ccccc2COc2ccc(F)cc21 | Criterion met
CN(C)CC/C=C1\c2ccccc2COc2ccc(Br)cc21 [(B), hydrochloride] | Criterion met
CN(C)CC/C=C1/c2cc(Br)ccc2COc2ccccc21 | Criterion not met
Fc1ccc2c(c1)/C(=C/CCN1CCCC1)c1ccccc1CO2 [(S)] | Criterion not met
Brc1cccc2c1OCc1ccccc1C2=CCN1CCCC1 | Criterion met
CN(C)CC/C=C1/c2cc(Br)ccc2COc2ccc(Br)cc21 | Criterion not met
Brc1ccc2c(c1)/C(=C/CCN1CCCC1)c1ccccc1CO2 | Criterion not met
CCN(CC)CC/C=C1\c2ccccc2COc2ccc(Br)cc21 | Criterion not met
Brc1ccc2c(c1)/C(=C/CCN1CCCC1)c1ccccc1OC2 | Criterion met
Brc1ccc2c(c1)/C(=C\CCN1CCCC1)c1cc(Br)ccc1OC2 [(R)] | Criterion met
Brc1ccc2c(c1)/C(=C/CCN1CCCC1)c1cc(Br)ccc1OC2 | Criterion met
C(/CN1CCCC1)=C1\c2ccccc2COc2ccccc21 [(H), hydrochloride] | Criterion met
CN(C)CC/C=C1/c2ccccc2COc2ccc(Br)cc21.Cl.Cl.Cl [(A), trihydrochloride] | Criterion met
CN(C)CCC=C1c2ccccc2COc2ccccc21 [(W), doxepin, reference compound] | Criterion not met
CN(C)CC/C=C1/c2ccccc2COc2cc(Br)ccc21 [(E)] | Criterion met
CN(C)CC/C=C1/c2ccccc2COc2ccc(F)cc21 | Criterion met
CCN(CC)CC/C=C1/c2ccccc2COc2ccc(Br)cc21 | Criterion not met
Brc1ccc2c(c1)/C(=C\CN1CCCC1)c1ccccc1CO2 | Criterion met
Brc1ccc2c(c1)/C(=C\CCN1CCCC1)c1ccccc1CO2 | Criterion met
Fc1ccc2c(c1)/C(=C\CCN1CCCC1)c1ccccc1CO2 | Criterion not met

---

Quick reference for viability at 96 h, 10 µM among some compounds
# test-details: In vitro cytotoxicity / potentiation of Actinomycin D in Chinese hamster ovary cells, drug resistant C5S32 (MTT)
# Format: cell-based
# test-conditions: hamster, cho c5s32 cells, 10 μM potentiating agent alone, fraction of untreated cultures (1.00), read-out: Cytotoxicity, normalized absorbance, Drug Resistant C5S32, 0 (no Act D)
Where a name gives a salt, the structure may show the parent alone.

compound | value-unit | viability at 96 h, 10 µM
CN(C)CC/C=C1/c2ccccc2COc2c(Br)cccc21 | % | 34
Brc1cccc2c1OCc1ccccc1C2=CCN1CCCC1 | % | 29
Brc1ccc2c(c1)/C(=C\CCN1CCCC1)c1cc(Br)ccc1OC2 [(R)] | % | 11
CN(C)CC/C=C1\c2ccccc2COc2ccc(F)cc21 | % | 31
CN(C)CC/C=C1\c2cc(Br)ccc2COc2ccc(Br)cc21 | % | 75
CN(C)CC/C=C1/c2ccccc2COc2ccc(F)cc21 | % | 33
CN(C)CC/C=C1/c2ccccc2COc2ccc(Br)cc21.Cl.Cl.Cl [(A), trihydrochloride] | % | 42
CN(C)CC/C=C1\c2ccccc2COc2ccc(Br)cc21 [(B), hydrochloride] | % | 55
CCN(CC)CC/C=C1\c2ccccc2COc2ccc(Br)cc21 | % | 80
CN(C)CC/C=C1/c2ccccc2COc2cc(Br)ccc21 [(E)] | % | 48
C(/CN1CCCC1)=C1\c2ccccc2COc2ccccc21 [(H), hydrochloride] | % | 53
CN(C)CCC=C1c2ccccc2COc2ccccc21 [(W), doxepin, reference compound] | % | 55
